Test system: M07e
Set-up: species or system AML cell lines (8); Primary HTS, single concentration about 10 uM, Cell Titer Glo viability; log10 luminescence, per cent inhibition relative to cycloheximide control
Conditions: 72 h, relative to cycloheximide control, log10 luminescence; inhibitor
readout_label: M07e %inh

Here is how some compounds turned out for M07e %inh.
compound	M07e %inh
COC(=O)c1sc(-n2cnc3cc(OC)c(OC)cc32)cc1OCc1ccccc1C(F)(F)F	0.7415%
C[C@]12C=CC(=O)C=C1CC[C@@H]1[C@@H]2[C@@H](O)C[C@@]2(C)[C@H]1CC[C@]2(O)C(=O)COP(=O)(O)O [SJ000555709-1, PREDNISOLONE SODIUM PHOSPHATE]	-1.037%

Lab request: please report M07e %inh under test system M07e for "O=C(Nc1n[nH]c2cc(-c3ccccc3)ccc12)C1CC1"
17.84%

Lab request: please report M07e %inh under test system M07e for "CC(C)(C)c1cnc(CSc2cnc(NC(=O)C3CCNCC3)s2)o1"
111.6%

Lab request: please report M07e %inh under test system M07e for "OC(Cn1cncn1)(Cn1cncn1)c1ccc(F)cc1F"
-2.445%

Lab request: please report M07e %inh under test system M07e for "Cc1ccc2c(-c3ccnc(Nc4cccc(C(F)(F)F)c4)n3)c(-c3ccccc3)nn2n1"
0.344%

Lab request: please report M07e %inh under test system M07e for "Cc1ccc(C)c(C2=C(c3cn(C)c4ccccc34)C(=O)NC2=O)c1"
-1.997%

The origin of these recorded values is paper PMC6522510.
